# assay remarks: Cytotoxicity against human MT4 cells by MTT assay
# Format: toxicity, cell-based

{"columns": ["record smiles", "CC50 / µM"],
 "data": [
  ["Oc1cc(/C=C/c2cc(O)c(O)c(O)c2)cc(O)c1O", 11.9]
]}

* * *

# Tested on: Human immunodeficiency virus 1
# assay remarks: Antiviral activity against HIV-1 infected in HEK293T cells
# Type: functional, organism-based
# condition context: Human immunodeficiency virus 1, HEK-293T
EC50 values for the molecules below.
measured parameter: EC50

{"columns": ["record smiles", "test system", "measured parameter", "measurement"],
 "data": [
  ["Oc1ccc(-c2cc(-c3cc(O)cc(O)c3)on2)cc1", "Human immunodeficiency virus 1", "EC50", "> 75 µM"],
  ["Oc1ccc(-c2ccc(-c3cc(O)cc(O)c3)[nH]2)cc1", "Human immunodeficiency virus 1", "EC50", "> 75 µM"],
  ["Oc1ccc(-c2ncc(-c3cc(O)cc(O)c3)cn2)cc1", "Human immunodeficiency virus 1", "EC50", "> 75 µM"],
  ["Oc1ccc(-c2cnc(-c3cc(O)cc(O)c3)nc2)cc1", "Human immunodeficiency virus 1", "EC50", "> 75 µM"],
  ["Oc1cc(O)cc(-c2ccc(-c3ccncc3)cc2)c1", "Human immunodeficiency virus 1", "EC50", "> 100 µM"],
  ["Oc1ccc(-n2cc(-c3cc(O)cc(O)c3)nn2)cc1", "Human immunodeficiency virus 1", "EC50", "> 75 µM"]
]}

* * *

# assay remarks: Therapeutic index, ratio of CC50 for cytotoxicity against human C8166 cells to EC50 for antiviral activity against HIV-1 infected in C8166 cells
# Assay type: toxicity, cell-based
# condition context: read-out: Ratio CC50/EC50

{"columns": ["record smiles", "selectivity ratio"],
 "data": [
  ["O=S(=O)([O-])OC[C@H]1O[C@@H](Oc2cc(O)cc(/C=C/c3ccc(O)cc3)c2)[C@H](O)[C@@H](O)[C@@H]1O.[Na+]", "< 3.73"],
  ["O=S(=O)([O-])O[C@H]1[C@H](Oc2cc(O)cc(/C=C/c3ccc(O)cc3)c2)O[C@H](CO)[C@@H](O)[C@@H]1O.[Na+]", "> 13"],
  ["O=S(=O)([O-])O[C@H]1[C@H](O)[C@@H](O)[C@H](Oc2cc(O)cc(/C=C/c3ccc(O)cc3)c2)O[C@@H]1CO.[Na+]", "< 4.06"],
  ["OC[C@H]1O[C@@H](Oc2cc(O)cc(/C=C/c3ccc(O)cc3)c2O[C@@H]2O[C@H](CO)[C@@H](O)[C@H](O)[C@H]2O)[C@H](O)[C@@H](O)[C@@H]1O", "> 1.13"]
]}

* * *

# assay remarks: Cytotoxicity against human C8166 cells assessed as inhibition of cell growth by MTT assay
# Assay type: toxicity, cell-based
measured parameter: CC50

{"columns": ["record smiles", "measured parameter", "measurement"],
 "data": [
  ["O=S(=O)([O-])Oc1ccc(/C=C/c2cc(O)cc(O[C@@H]3O[C@H](CO)[C@@H](O)[C@H](O)[C@H]3O)c2)cc1.[Na+]", "CC50", "> 2000 µg/mL"],
  ["OC[C@H]1O[C@@H](Oc2cc(O)cc(/C=C/c3ccc(O)cc3)c2O[C@@H]2O[C@H](CO)[C@@H](O)[C@H](O)[C@H]2O)[C@H](O)[C@@H](O)[C@@H]1O", "CC50", "> 200 µg/mL"],
  ["O=S(=O)([O-])O[C@H]1[C@H](Oc2cc(O)cc(/C=C/c3ccc(O)cc3)c2)O[C@H](CO)[C@@H](O)[C@@H]1O.[Na+]", "CC50", "> 2000 µg/mL"],
  ["OC[C@H]1O[C@@H](Oc2cc(O)cc(/C=C/c3ccc(O)cc3)c2)[C@H](O)[C@@H](O)[C@@H]1O", "CC50", "> 200 µg/mL"]
]}
